Target: T1, human CD47 expressed on cells (CD47 expressing CHO cells, Jurkat, HL60, DLD1, Raji) (human, UniProt Q08722 19-292)
T1 construct: also called CHO-CD47; IAP
Assay: IC50 as grade, SIRPα blocking on Raji cells; legend +++: <1 nM
// IC50 lookup, one value per entry

[
  {
    "BINDER": "Positive 3 (analogue antibody) (antibody, V domains shown) VH: QMQLVQSGAEVKKTGSSVKVSCKASGFNIKDYYLHWVRQAPGQALEWMGWIDPDQGDTEYAQKFQDRVTITRDRSMSTAYMELSSLRSEDTAMYYCNAAYGSSSYPMDYWGQGTTVTV VL: NIQMTQSPSAMSASVGDRVTITCKASQDIHRYLSWFQQKPGKVPKHLIYRANRLVSGVPSRFSGSGSGTEFTLTISSLQPEDFATYYCLQYDEFPYTFGGGTKVEIK",
    "IC50": "< 1 nM"
  },
  {
    "BINDER": "H-ABU 6 (antibody, V domains shown) VH: QVQLVQSGAEVKKPGASVKVSCKASGYTFTDFYINWVRQAPGQRLEWMGWIYLGSGNTKYNEKFKGRVTITRDTSASTAYMELSSLRSEDTAVYYCARREERGFAYWGQGTLVTVSS VL: DIVMTQSPDSLAVSLGERATINCKSSQSLLSSNQKNYLAWYQQKPGQPPKLLIYWASVRDSGVPDRFSGSGSGTDFTLTISSLQAEDVAVYYCQQFYSYPLTFGQGTKVEIK",
    "IC50": "< 1 nM"
  },
  {
    "BINDER": "H-ABU 7 (antibody, V domains shown) VH: QVQLVQSGAEVKKPGASVKVSCKASGYTFTDHYINWVRQAPGQRLEWMGWIYLGSGNTKYNEKFKGRVTITRDTSASTAYMELSSLRSEDTAVYYCARREDRGFAYWGQGTLVTVSS VL: DIVMTQSPDSLAVSLGERATINCKSSQSLLSSSQKNYLAWYQQKPGQPPKLLIYWASVRDSGVPDRFSGSGSGTDFTLTISSLQAEDVAVYYCQQYYSYPLTFGQGTKVEIK",
    "IC50": "< 1 nM"
  },
  {
    "BINDER": "H-ABU 4 (antibody, V domains shown) VH: QVQLVQSGAEVKKPGASVKVSCKASGYTFTDIYINWVRQAPGQRLEWMGWIYLGSGNVKYNEKFKGRVTITRDTSASTAYMELSSLRSEDTAVYYCARREDRGFAYWGQGTLVTVSS VL: DIVMTQSPDSLAVSLGERATINCKSSQSLLSSNQKYYLAWYQQKPGQPPKLLIYWASTRDSGVPDRFSGSGSGTDFTLTISSLQAEDVAVYYCQQFYSYPLTFGQGTKVEIK",
    "IC50": "< 1 nM"
  }
]
